SYSTEM: UniProtKB P29375
ASSAY_SUMMARY: Inhibition of recombinant human N-terminal FLAG-tagged KDM5A expressed in baculovirus infected Sf9 insect cells using H3K4me3 peptide as substrate after 30 to 45 mins by TR-FRET assay
MEASURE: IC50 (nM)

[[record]]
compound = "CC(C)c1cc(C(=O)N2CCC(NC(=O)c3ccccc3)C2)[nH]n1 (racemic)"
system = "UniProtKB P29375"
operator_symbol = "="
result = 99

[[record]]
compound = "CC(C)c1cc(C(=O)N2CCC(N3CCOCC3)C2)[nH]n1 (racemic)"
system = "UniProtKB P29375"
operator_symbol = ">"
result = 25000

[[record]]
compound = "CC(C)c1cc(C(=O)N2CCC(n3cc(Br)cn3)C2)[nH]n1 (racemic)"
system = "UniProtKB P29375"
operator_symbol = "="
result = 727

[[record]]
compound = "Cc1cc(-c2cnn(C)c2)cc(C2CCN(C(=O)c3cc(C(C)C)n[nH]3)C2)n1 (racemic)"
system = "UniProtKB P29375"
operator_symbol = "="
result = 260

[[record]]
compound = "Cc1cc(Oc2ccccc2)cc(C2CCN(C(=O)c3cc(C(C)C)n[nH]3)C2)n1 (racemic)"
system = "UniProtKB P29375"
operator_symbol = "="
result = 128


====

ASSAY_SUMMARY: Hepatic clearance in rat hepatocytes
Assay type: ADME, cell-based, Hepatocyte
Recorded CLhep predicted, one value per entry.
MEASURE: CLhep predicted (mL/min/kg)

[[record]]
molecule = "Cc1cc(-c2cnn(C)c2)cc(C2CCN(C(=O)c3cc(C(C)C)n[nH]3)C2)n1 (stereo in doubt; 9)"
measure = "CLhep predicted"
uom = "mL/min/kg"
result = 39

[[record]]
molecule = "CC(C)c1cc(C(=O)N2CC[C@@H](NC(=O)C3CC3)C2)[nH]n1"
measure = "CLhep predicted"
uom = "mL/min/kg"
result = 6.3


====

Recorded fraction unbound, one value per entry.
ASSAY_SUMMARY: Protein binding in mouse plasma
Type: ADME, cell-free
SETUP_CONDITIONS: read-out: PPB (converted)
MEASURE: fraction unbound

[[record]]
compound = "CC(C)c1cc(C(=O)N2CC[C@@H](NC(=O)C3CC3)C2)[nH]n1"
measure = "fraction unbound"
result = 0.6

[[record]]
compound = "Cc1cc(-c2cnn(C)c2)cc(C2CCN(C(=O)c3cc(C(C)C)n[nH]3)C2)n1 (stereo in doubt; 9)"
measure = "fraction unbound"
result = 0.043


====

SYSTEM: Lysine-specific demethylase 5A (Homo sapiens, UniProt P29375)
Sequence (P29375 whole entry): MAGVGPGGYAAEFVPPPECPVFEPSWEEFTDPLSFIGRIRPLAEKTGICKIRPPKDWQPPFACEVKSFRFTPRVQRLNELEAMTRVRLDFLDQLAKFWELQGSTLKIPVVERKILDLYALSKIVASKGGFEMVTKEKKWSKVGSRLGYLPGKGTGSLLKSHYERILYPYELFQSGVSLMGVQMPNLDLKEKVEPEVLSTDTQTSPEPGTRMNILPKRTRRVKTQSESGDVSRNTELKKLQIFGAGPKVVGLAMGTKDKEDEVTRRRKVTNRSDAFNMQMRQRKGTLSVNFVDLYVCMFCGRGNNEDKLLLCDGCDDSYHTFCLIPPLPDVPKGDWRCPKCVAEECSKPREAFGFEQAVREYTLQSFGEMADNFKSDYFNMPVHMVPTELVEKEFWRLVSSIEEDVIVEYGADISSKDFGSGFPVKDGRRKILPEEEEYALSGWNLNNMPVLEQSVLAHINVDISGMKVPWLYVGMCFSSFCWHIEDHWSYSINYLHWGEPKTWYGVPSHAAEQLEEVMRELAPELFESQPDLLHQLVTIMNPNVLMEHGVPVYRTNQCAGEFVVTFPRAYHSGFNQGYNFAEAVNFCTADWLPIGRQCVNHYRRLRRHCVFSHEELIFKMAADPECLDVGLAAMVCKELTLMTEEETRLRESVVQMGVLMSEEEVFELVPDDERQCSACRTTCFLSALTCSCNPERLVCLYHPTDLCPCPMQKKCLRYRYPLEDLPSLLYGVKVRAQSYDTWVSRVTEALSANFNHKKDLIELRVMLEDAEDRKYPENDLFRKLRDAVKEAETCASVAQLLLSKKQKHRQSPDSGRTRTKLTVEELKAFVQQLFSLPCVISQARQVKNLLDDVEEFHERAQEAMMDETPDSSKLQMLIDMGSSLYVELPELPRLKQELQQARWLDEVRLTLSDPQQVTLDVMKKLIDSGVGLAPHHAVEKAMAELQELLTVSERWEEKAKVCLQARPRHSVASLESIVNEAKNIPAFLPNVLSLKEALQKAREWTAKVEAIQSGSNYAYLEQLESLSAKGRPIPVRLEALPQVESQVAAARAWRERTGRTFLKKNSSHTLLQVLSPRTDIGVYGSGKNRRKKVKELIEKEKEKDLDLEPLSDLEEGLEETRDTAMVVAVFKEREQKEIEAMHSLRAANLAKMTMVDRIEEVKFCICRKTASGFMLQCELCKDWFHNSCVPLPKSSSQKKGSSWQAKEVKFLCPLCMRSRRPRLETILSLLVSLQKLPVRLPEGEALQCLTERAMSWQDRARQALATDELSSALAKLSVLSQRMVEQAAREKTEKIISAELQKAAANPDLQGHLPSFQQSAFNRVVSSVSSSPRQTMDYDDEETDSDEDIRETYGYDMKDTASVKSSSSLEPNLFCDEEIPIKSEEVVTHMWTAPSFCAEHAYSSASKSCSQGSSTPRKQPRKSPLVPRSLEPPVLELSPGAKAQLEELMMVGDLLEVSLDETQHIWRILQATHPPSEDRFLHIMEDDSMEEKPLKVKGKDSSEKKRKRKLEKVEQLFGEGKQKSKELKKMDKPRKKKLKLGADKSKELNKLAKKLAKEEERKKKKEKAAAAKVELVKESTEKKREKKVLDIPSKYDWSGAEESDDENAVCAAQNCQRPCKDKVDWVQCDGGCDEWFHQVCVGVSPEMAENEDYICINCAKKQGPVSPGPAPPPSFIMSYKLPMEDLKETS
ASSAY_SUMMARY: Inhibition of KDM5A in human PC9 cells assessed as increase in H3K4me3 level after 5 days by mass-spectrometric method
Format: cell-based
SETUP_CONDITIONS: read-out: EC50
MEASURE: EC50 (nM)

[[record]]
molecule = "Cc1cc(-c2cnn(C)c2)cc(C2CCN(C(=O)c3cc(C(C)C)n[nH]3)C2)n1 (racemic)"
system = "Lysine-specific demethylase 5A (Homo sapiens, UniProt P29375)"
measure = "EC50"
operator_symbol = ">"
result = 30000

[[record]]
molecule = "CC(C)c1cc(C(=O)N2CCC(NC(=O)c3ccccc3)C2)[nH]n1 (racemic)"
system = "Lysine-specific demethylase 5A (Homo sapiens, UniProt P29375)"
measure = "EC50"
operator_symbol = "="
result = 6500

[[record]]
molecule = "CC(C)c1cc(C(=O)N2CCC(NC(=O)C3CC3)C2)[nH]n1 (racemic)"
system = "Lysine-specific demethylase 5A (Homo sapiens, UniProt P29375)"
measure = "EC50"
operator_symbol = "="
result = 1600

[[record]]
molecule = "CC(C)c1cc(C(=O)N2CC[C@@H](NC(=O)C3CC3)C2)[nH]n1"
system = "Lysine-specific demethylase 5A (Homo sapiens, UniProt P29375)"
measure = "EC50"
operator_symbol = "="
result = 960

[[record]]
molecule = "CC(C)c1cc(C(=O)N2CCC(NC(=O)C3CCC3)C2)[nH]n1 (stereo in doubt; 47)"
system = "Lysine-specific demethylase 5A (Homo sapiens, UniProt P29375)"
measure = "EC50"
operator_symbol = "="
result = 1500

